Target: DNA-PK protein complex (Homo sapiens)
Test: DNA-PK kinase assay (FlashPlate, 33P-ATP)
Conditions: biotin-DNA-PK peptide substrate, 5 μM ATP, 90 minutes at room temperature
MEASURE: IC50

Your task in this section: give IC50 for each listed record.
1. Cc1nc2cc(-c3ccc4ncnc(N5CCCc6ccccc65)c4c3)cnc2[nH]1 [Compound A5]
2. c1ccc2c(c1)CCN(c1ncnc3ccc(-c4cnc5[nH]ccc5c4)nc13)C2 [Compound A6]
3. CCc1nc2cc(-c3ccc4ncnc(N5CCc6ccccc6C5)c4c3)cnc2[nH]1 [Compound A10]
4. COc1cc2c(cc1OC)CN(c1ncnc3ccc(-c4cnc5[nH]ccc5c4)nc13)CC2 [Compound A7]
5. c1ccc2c(c1)CN(c1ncnc3ccc(-c4cnc5[nH]ccc5c4)cc13)C2 [Compound A2]
6. COc1cc2c(cc1OC)CN(c1ncnc3ccc(-c4cnc5[nH]c(C)nc5c4)nc13)CC2 [Compound A9]

Out:
1 to 100 nM
1 to 100 nM
1 to 100 nM
1 to 100 nM
1 to 100 nM
1 to 100 nM

* * *

Biological target: DNA-PK protein complex (Homo sapiens)
Assay: DNA-PK kinase assay (FlashPlate, 33P-ATP)
Conditions: biotin-DNA-PK peptide substrate, 5 μM ATP, 90 minutes at room temperature
MEASURE: IC50

Examples with answers:
Cc1nc2cc(-c3ccc4ncnc(N5CCC(=O)c6ccccc65)c4c3)cnc2[nH]1 [Compound A13] | 1 to 100 nM
Cc1nc2cc(-c3ccc4ncnc(N5CCc6ccccc6C5)c4c3)cnc2[nH]1 [Compound A4] | 1 to 100 nM

Form field IC50, entry COc1ccc2c(c1)CN(c1ncnc3ccc(-c4cnc5[nH]c(C)nc5c4)cc13)CC2 [Compound A11] : 1 to 100 nM

Origin of measurements: patent US9006255B2
